Target: human thrombin (Homo sapiens, UniProt P00734)
Assay: Inhibition of thrombin hydrolysis of chromogenic substrate S2238 (Ki)
Format: biochemical
Set-up: 0.2-0.5 nM human thrombin or human factor Xa; purchased Enzyme Research Laboratories, South Bend, Ind
Settings: purified human thrombin, 0.10 M sodium phosphate buffer, pH 7.5, read-out: Ki values for inhibition of Serine Proteases: Trombin
Method: The effectiveness of compounds of the present invention as inhibitors of blood coagulation proteases was determined using purified human proteases and synthetic substrates following procedures similar to those described in Kettner et al. (1990). […] Reactions were allowed to go for 30 minutes and the velocities (rate of absorbance change vs time) were measured in the time frame of 25-30 minutes. […]
Where a name gives a salt, the structure may show the parent alone.
PROPERTY MEASURED: Ki

Take a look at these entries with their results.
COMPOUND | PROPERTY MEASURED | RESULT
CN=C(N)NCCCC(NC(=O)CN(CCc1ccccc1)C(=O)CCc1ccccc1)B1OC2CC3CC(C3(C)C)C2(C)O1 (stereo not drawn) [Example 49.2.1, HCl] | Ki | < 500 nM
CC(C)(CN(CC(=O)NC(CCCN)B1OC2CC3CC(C3(C)C)C2(C)O1)C(=O)CCc1ccccc1)c1ccccc1 (stereo not drawn) [Example 60.3.3, HCl] | Ki | < 500 nM

Now for another entry.
Form field: reported Ki of NCCCCC(NC(=O)CN(CCc1ccccc1)C(=O)CCC(=O)O)B(O)O (stereo not drawn) [Example 68.3.1, Succinyl-[N-(Phenethyl)-Gly]-boroLys--OH]
< 500 nM
